target: T1, human HER2 His6 protein, extracellular domain (NCBI NP_004439.2, Met 1-Thr 652), C-terminal polyhistidine tag (human, UniProt P04626 23-652); experiment: ELISA, HER2 protein coated at 1 µg/mL, detection with HRP-labelled protein A
T1 construct: range 1-652; The stated range includes Met 1; also called HER2-ECD; human HER2-ECD
Measurement kind: EC50
Don't forget the unit after the number, please.

Example entries begin here.
# Binder, EC50
records = [
    ("HER2 VHH-FC1 fusion protein 2-F03 (Fc fusion, 25; also called 2-F03-FC1; chimeric nanobody 2-F03) EVQLVESGGGLVQPGGSLRLSCAASGLTFRRYHMSWYRQAPGKERELVAVISDTGTTNYAESVKGRFTISRDNSRSTVFLQLNSLKPDDTAVYYCNGRWPAVAADWWGQGTQVTVSSEPKSSDKTHTCPPCPAPEFEGGPSVFLFPPKPKDTLMISRTPEVTCVVVDVSHEDPEVKFNWYVDGVEVHNAKTKPREEQYNSTYRVVSVLTVLHQDWLNGKEYKCKVSNKALPASIEKTISKAKGQPREPQVYTLPPSRDELTKNQVSLTCLVKGFYPSDIAVEWESNGQPENNYKTTPPVLDSDGSFFLYSKLTVDKSRWQQGNVFSCSVMHEALHNHYTQKSLSLSPGK", "4 ng/mL"),
    ("HER2 VHH-FC1 fusion protein 1-C10 (Fc fusion, 25; also called 1-C10-FC1; chimeric nanobody 1-C10) QVQLVESGGDLVQPGGSLRLSCATSGLTFRRYELKWYRQAPGKERELVAGITPASGSRNYADSVKGRFTISRDDAKMTVYLQMNSLEPEDTAVYYCNAYWMIPQHIENNYWGKGTLVTVSSEPKSSDKTHTCPPCPAPEFEGGPSVFLFPPKPKDTLMISRTPEVTCVVVDVSHEDPEVKFNWYVDGVEVHNAKTKPREEQYNSTYRVVSVLTVLHQDWLNGKEYKCKVSNKALPASIEKTISKAKGQPREPQVYTLPPSRDELTKNQVSLTCLVKGFYPSDIAVEWESNGQPENNYKTTPPVLDSDGSFFLYSKLTVDKSRWQQGNVFSCSVMHEALHNHYTQKSLSLSPGK", "17 ng/mL"),
    ("HER2 VHH-FC1 fusion protein 1-B05 (Fc fusion, 25; also called 1-B05-FC1; chimeric nanobody 1-B05) AVQLVESGGGPGGSLRLSCAASGITFFRHTLGWYRQAPGKQRELVASITGGESTNYADSVKSRFTISRDNAKNMVFLQMNSLKPEDTALYYCNSKWDAAGVEFWGKGTLVTVSSEPKSSDKTHTCPPCPAPEFEGGPSVFLFPPKPKDTLMISRTPEVTCVVVDVSHEDPEVKFNWYVDGVEVHNAKTKPREEQYNSTYRVVSVLTVLHQDWLNGKEYKCKVSNKALPASIEKTISKAKGQPREPQVYTLPPSRDELTKNQVSLTCLVKGFYPSDIAVEWESNGQPENNYKTTPPVLDSDGSFFLYSKLTVDKSRWQQGNVFSCSVMHEALHNHYTQKSLSLSPGK", "5 ng/mL"),
]

*Q* Requested field: EC50. Item: HER2 VHH-FC1 fusion protein 2-C07 (Fc fusion, 25; also called 2-C07-FC1; chimeric nanobody 2-C07) AVQLVESGGGLVQPGGSLRLSCAASGLTFMRYDINWYRQAPGKERELVAALDSSSGRTNYADFTEGRFTISRNNAKNSAYLQMNNLKPEDTASYYCNAQWKRIGADYWGQGTQVTVFSEPKSSDKTHTCPPCPAPEFEGGPSVFLFPPKPKDTLMISRTPEVTCVVVDVSHEDPEVKFNWYVDGVEVHNAKTKPREEQYNSTYRVVSVLTVLHQDWLNGKEYKCKVSNKALPASIEKTISKAKGQPREPQVYTLPPSRDELTKNQVSLTCLVKGFYPSDIAVEWESNGQPENNYKTTPPVLDSDGSFFLYSKLTVDKSRWQQGNVFSCSVMHEALHNHYTQKSLSLSPGK
*A* 5 ng/mL

*Q* Requested field: EC50. Item: HER2 VHH-FC1 fusion protein 1-G07 (Fc fusion, 25; also called 1-G07-FC1; chimeric nanobody 1-G07) QVQLVESGGGKAQPGGSLRLSCVASRITFRHYDLSWYRQAPGQERELVATVTNGGVITYADSVKGRFTISRDNAKNTVQLQMNNLKPEDTAVYYCNAVWVYLQRLTQNKKENDYWGPGTQVTVSSEPKSSDKTHTCPPCPAPEFEGGPSVFLFPPKPKDTLMISRTPEVTCVVVDVSHEDPEVKFNWYVDGVEVHNAKTKPREEQYNSTYRVVSVLTVLHQDWLNGKEYKCKVSNKALPASIEKTISKAKGQPREPQVYTLPPSRDELTKNQVSLTCLVKGFYPSDIAVEWESNGQPENNYKTTPPVLDSDGSFFLYSKLTVDKSRWQQGNVFSCSVMHEALHNHYTQKSLSLSPGK
*A* 10 ng/mL

*Q* Requested field: EC50. Item: HER2 VHH-FC1 fusion protein 1-C09 (Fc fusion, 25; also called 1-C09-FC1; 1-C9-FC1) DVQLVESGGGLVQPGGSLRLSCEASGLTFRRYHFSWYRQPPGKERELVAVISDTGSTTNYTDSVKGRFTISRDLARNTVFLQLNSLKPDDTAVYYCNAKWPIIAADWWGQGTQVTVSSEPKSSDKTHTCPPCPAPEFEGGPSVFLFPPKPKDTLMISRTPEVTCVVVDVSHEDPEVKFNWYVDGVEVHNAKTKPREEQYNSTYRVVSVLTVLHQDWLNGKEYKCKVSNKALPASIEKTISKAKGQPREPQVYTLPPSRDELTKNQVSLTCLVKGFYPSDIAVEWESNGQPENNYKTTPPVLDSDGSFFLYSKLTVDKSRWQQGNVFSCSVMHEALHNHYTQKSLSLSPGK
*A* 10 ng/mL

Values compiled from patent US20260151496A1.
